Numbers sourced from patent US20160208018A1.

For each record, write down the corresponding % Max Competition.
molecular target: T1, Human ROR1 (receptor tyrosine kinase-like orphan receptor 1) (human, UniProt Q01973 30-937); experiment: competition with Myc-R12 scFv on ROR1/K562 cells; predicted plateau relative to R12 scFv = 100%
T1 construct: also called hROR1; K562/ROR1
T1 sequence (Q01973 30-937): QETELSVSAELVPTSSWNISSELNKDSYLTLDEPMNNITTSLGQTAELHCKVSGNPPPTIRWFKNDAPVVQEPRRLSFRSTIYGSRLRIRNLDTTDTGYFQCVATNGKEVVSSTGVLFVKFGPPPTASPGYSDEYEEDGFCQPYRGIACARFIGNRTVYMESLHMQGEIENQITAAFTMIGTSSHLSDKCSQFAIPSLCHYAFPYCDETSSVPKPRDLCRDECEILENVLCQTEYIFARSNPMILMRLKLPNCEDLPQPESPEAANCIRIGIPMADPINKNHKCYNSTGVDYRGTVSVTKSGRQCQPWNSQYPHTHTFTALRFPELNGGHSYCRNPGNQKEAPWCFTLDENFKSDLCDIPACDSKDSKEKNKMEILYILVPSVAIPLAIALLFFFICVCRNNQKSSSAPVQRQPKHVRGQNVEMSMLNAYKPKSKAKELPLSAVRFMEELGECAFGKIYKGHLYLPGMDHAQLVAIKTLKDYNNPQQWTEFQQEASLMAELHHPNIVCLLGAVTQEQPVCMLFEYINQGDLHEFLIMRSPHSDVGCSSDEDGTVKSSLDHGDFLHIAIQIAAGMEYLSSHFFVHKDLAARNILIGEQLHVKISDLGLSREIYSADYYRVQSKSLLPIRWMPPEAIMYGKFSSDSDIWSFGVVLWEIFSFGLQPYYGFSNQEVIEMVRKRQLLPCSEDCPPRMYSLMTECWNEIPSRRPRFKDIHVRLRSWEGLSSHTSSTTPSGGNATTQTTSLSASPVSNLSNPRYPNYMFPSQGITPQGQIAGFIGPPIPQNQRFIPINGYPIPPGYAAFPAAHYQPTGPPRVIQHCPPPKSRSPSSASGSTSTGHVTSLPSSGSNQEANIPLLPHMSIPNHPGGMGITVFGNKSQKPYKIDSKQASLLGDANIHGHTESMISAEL
One number for each entry, in %.

• Clone V331 (VHH, human VH-only single-domain antibody, no VL) VHH: QVQLQQWGAGLLKPSETLSLTCAVYGGSFSGYYWSWIRQPPGKGLEWIGKINHSGSTNYNPSLKSRVTISVDTSKNQFSLKLSSVTAADTAVYYCARGQIAAHVWGWFDPWGQGTLVTVSS = 31

Return reported % Max Competition values for all items listed beneath this line.
1. Clone V312 (VHH, human VH-only single-domain antibody, no VL) VHH: EVQLVESGGGLVKPRGSLRLSCAASGFTFSNAWMSWVRQAPGKGLEWVGRIKSKTDGGTTDYAAPVKGRFTISRDDSKNTLYLQMNSLKTEDTAVYYCARTSRGRFLEWLLFDYWGQGTLVTVSS
2. Clone V181 (VHH, human VH-only single-domain antibody, no VL) VHH: QITLKESGGGLVKPGRSLRLSCTASGFTFGDYAMSWFRQAPGKGLEWVGFIRSKAYGGTTEYAASVKGRFTISRDDSKSIAYLQMNSLKTEDTAVYYCAKDFEVREAHLSYFDYWGQGTLVTVSS
3. Clone V95 (VHH, human VH-only single-domain antibody, no VL) VHH: QVQLVESGGGLVKPGGSLRLSCAASGFTFSNAWMSWVRQAPGKGLEWVGRIKSKTDGGTTDYAAPVKGRFTISRDDSKKTLYLQMNSLKTEDTAVYYCARGSGELRFLESYYFDYWGQGTLVTVSS
4. Clone V18 (VHH) VHH: QVQLVESGGGLVKPGGSLRLSCAASGFTFSNAWMSWVRQAPGKGLEWVGRIKSKTDGGTTDYAAPVKGRFTISRDDSKNSLYLQMNSLKTEDTAVYYCARDFGRWSYYFDYWGQGTLVTVSS

[out]
1: 19; 2: 76; 3: 36; 4: 54
